- Study system: T1, Bzz1-2, P38822
- T1 sequence (P38822 568-633, looked up): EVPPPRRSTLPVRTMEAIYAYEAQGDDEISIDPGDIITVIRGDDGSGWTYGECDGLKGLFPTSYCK
- Assay notes: SPOT array
- Conditions: median of control spots 4538
Attribute measured: SPOT intensity

Study these solved cases before continuing.
TPEIPPPLPPKIMVH: 0
NQARKPFLLPATELS: 0
VQQDSLPKLPFRSWG: 0
SKSRLLIELPEGFFT: 0

A = LPMNIQPDLPPRKIM
B = AVPPPPPPPPLPESL
C = KRRAPPPVPKKPSSR
Query :: # rank_down: sort by SPOT intensity, max first Could you list the labels in the order requested?
Result :: C, B, A
